# assayOverview: Dog pharmacokinetics in vivo
# protocolConditions: plasma, male Beagle dogs, IV 0.5 mg/kg, read-out: IV t1/2 (converted)
Catalogue of half-life values
reportedEndpoint: half-life

CCNc1ccc(-c2c(C(=O)N[C@H]3N=C(c4ccccc4)c4cccc(F)c4NC3=O)cnn2C2CCOCC2)c(F)n1 1.5 h
CCn1ncc(C(=O)N[C@H]2N=C(c3ccccc3)c3ccccc3NC2=O)c1-c1ccc(NC2CC2)nc1F 1 h
O=C(N[C@H]1N=C(c2ccccc2)c2cccc(F)c2NC1=O)c1cnn(C2CCOCC2)c1-c1ccc(NC2CC2)nc1F 7.6 h
CC(C)Nc1ccc(-c2c(C(=O)N[C@H]3N=C(c4ccccc4)c4cccc(F)c4NC3=O)cnn2C2CCOCC2)c(F)n1 4.9 h

---

Catalogue of half-life values
# assayOverview: Liver hepatocyte stability, dog
# Type: in vitro ADME
# protocolConditions: dog hepatocytes, 3 μM compound, 60 min, >80% remaining at 60 min denoted >186, read-out: Liver Hepatocyte Stability: t1/2 (min)
reportedEndpoint: half-life

CCn1cc(C(=O)N[C@H]2N=C(c3ccccc3)c3ccccc3NC2=O)c(-c2ccc(NC3CC3)nc2F)n1 68.1 min
O=C(N[C@H]1N=C(c2ccccc2)c2cccc(F)c2NC1=O)c1cnn(C2COC2)c1-c1ccc(NC2CC2)nc1F 72.2 min
CCn1ncc(C(=O)N[C@H]2N=C(c3ccccc3)c3ccccc3NC2=O)c1-c1ccc(NC2CC2)nc1F 42.1 min
CCNc1ccc(-c2c(C(=O)N[C@H]3N=C(c4ccccc4)c4cccc(F)c4NC3=O)cnn2C2CCOCC2)c(F)n1 139 min

---

# assayOverview: Dog pharmacokinetics in vivo
# protocolConditions: plasma, male Beagle dogs, 8 h, Dose: IV/PO 0.5/3 mg/kg, read-out: C 8 h
# Protocol: The pharmacokinetics of compounds of the invention were studied in vivo in dogs. Male Beagle dogs were treated with experimental compounds via intravenous administration (n=2; 0.5 mg/kg) or oral administration (n=2; 3 mg/kg or 4 mg/kg). […] Samples were subsequently thawed, prepared for analysis by protein precipitation with acetonitrile, and analysed by tandem LCMS using electrospray ionisation using a matrix-matched calibration curve. PK parameters were calculated from the resulting data.

compound	concentration at 8 h
O=C(N[C@H]1N=C(c2ccccc2)c2cccc(F)c2NC1=O)c1cnn(C2CCOCC2)c1-c1ccc(NC2CC2)nc1F [Example 21]	146 ng/mL

---

# assayOverview: Liver microsomal stability, human
# Type: in vitro ADME
# protocolConditions: pH 7.4; human liver microsomes, 0.5 mg/mL protein, 1 μM compound, NADPH; >80% remaining at 45 min denoted >140; read-out: Liver Microsomal Stability: t1/2 (min); human

molecule	half-life [min]
CCNc1ccc(-c2c(C(=O)N[C@H]3N=C(c4ccccc4)c4ccccc4NC3=O)cnn2C2CC2)c(F)n1 [Example 14]	93.7
CN1CCC(n2ncc(C(=O)N[C@H]3N=C(c4ccccc4)c4cccc(F)c4NC3=O)c2-c2ccc(NC3CC3)nc2F)CC1 [Example 57]	84.7
CCn1ncc(C(=O)N[C@H]2N=C(c3ccccc3)c3ccccc3NC2=O)c1-c1ccc(NC2(C)CC2)nc1F [Example 6]	23

---

# assayOverview: Liver microsomal stability, human
# Type: in vitro ADME
# protocolConditions: pH 7.4; human liver microsomes, 0.5 mg/mL protein, 1 μM compound, NADPH; >80% remaining at 45 min denoted >140; read-out: Liver Microsomal Stability: t1/2 (min); human

compound	half-life [min]
CCNc1ccc(-c2c(C(=O)N[C@H]3N=C(c4ccccc4)c4cccc(F)c4NC3=O)cnn2C2COC2)c(F)n1 [Example 40]	49.6
CCCNc1ccc(-c2nn(CC)cc2C(=O)N[C@H]2N=C(c3ccccc3)c3cccc(F)c3NC2=O)c(F)n1 [Example 28]	41
CCn1ncc(C(=O)N[C@H]2N=C(c3ccccc3)c3ccccc3NC2=O)c1-c1ccc(NC2CCC2)nc1F [Example 5]	50.1
CCn1ncc(C(=O)N[C@H]2N=C(c3ccccc3)c3ccccc3NC2=O)c1-c1ccc(NC(C)C)cc1F [Example 9]	220
O=C(N[C@H]1N=C(c2ccccc2)c2cccc(F)c2NC1=O)c1cn(C2CCC(F)(F)CC2)nc1-c1ccc(NC2CC2)nc1F [Example 35]	164
CCNc1ccc(-c2c(C(=O)N[C@H]3N=C(c4ccccc4)c4ccccc4NC3=O)c(C)nn2CC)c(F)n1 [Example 10]	48.1
O=C(N[C@H]1N=C(c2ccccc2)c2cccc(F)c2NC1=O)c1cnn(C2CCOCC2)c1-c1ccc(NC2CC2)nc1F [Example 21]	170

---

# assayOverview: Rat pharmacokinetics in vivo
# protocolConditions: rat, in vivo; male Sprague Dawley rats, IV 1 mg/kg, PO 10 mg/kg
Catalogue of bioavailability values

molecule	valueUnits	bioavailability
CC(C)(C)n1cc(C(=O)N[C@H]2N=C(c3ccccc3)c3cccc(F)c3NC2=O)c(-c2ccc(NC3CC3)nc2F)n1 [Example 30]	%	57
CCn1ncc(C(=O)N[C@H]2N=C(c3ccccc3)c3ccccc3NC2=O)c1-c1ccc(NC2CC2)nc1F [Example 4]	%	124
O=C(N[C@H]1N=C(c2ccccc2)c2ccccc2NC1=O)c1cnn(C2CCOCC2)c1-c1ccc(NC2CC2)nc1F [Example 20]	%	23.9
CCn1cc(C(=O)N[C@H]2N=C(c3ccccc3)c3cccc(F)c3NC2=O)c(-c2ccc(NC3CC3)nc2F)n1 [Example 26]	%	95.6
CCn1cc(C(=O)N[C@H]2N=C(c3ccccc3)c3ccccc3NC2=O)c(-c2ccc(NC3CC3)nc2F)n1 [Example 25]	%	71.5
CCn1ncc(C(=O)N[C@H]2N=C(c3ccccc3)c3cccc(F)c3NC2=O)c1-c1ccc(NC2CC2)nc1F [Example 11]	%	93
CC(C)Nc1ccc(-c2c(C(=O)N[C@H]3N=C(c4ccccc4)c4ccccc4NC3=O)cnn2C2CCOCC2)c(F)n1 [Example 23]	%	34.7
CC(C)Nc1ccc(-c2c(C(=O)N[C@H]3N=C(c4ccccc4)c4cccc(F)c4NC3=O)cnn2C2CCOCC2)c(F)n1 [Example 22]	%	88.3
CCNc1ccc(-c2c(C(=O)N[C@H]3N=C(c4ccccc4)c4cccc(F)c4NC3=O)cnn2C2CCOCC2)c(F)n1 [Example 24]	%	50
O=C(N[C@H]1N=C(c2ccccc2)c2cccc(F)c2NC1=O)c1cnn(C2CCOCC2)c1-c1ccc(NC2CC2)nc1F [Example 21]	%	98.2
O=C(N[C@H]1N=C(c2ccccc2)c2cccc(F)c2NC1=O)c1cn(C2CCOCC2)nc1-c1ccc(NC2CC2)nc1F [Example 32]	%	19.3
O=C(N[C@H]1N=C(c2ccccc2)c2cccc(F)c2NC1=O)c1cnn(C2COC2)c1-c1ccc(NC2CC2)nc1F [Example 19]	%	64.6
CCn1ncc(C(=O)N[C@H]2N=C(c3ccccc3)c3ccccc3NC2=O)c1-c1ccc(NC(C)C)nc1F [Example 3]	%	17.1

---

Catalogue of half-life values
# assayOverview: Liver hepatocyte stability, human
# Assay type: in vitro ADME
# protocolConditions: human hepatocytes, 3 μM compound, 60 min, >80% remaining at 60 min denoted >186, read-out: Liver Hepatocyte Stability: t1/2 (min)
reportedEndpoint: half-life

molecule	reportedEndpoint	reading
CCNc1ccc(-c2c(C(=O)N[C@H]3N=C(c4ccccc4)c4ccccc4NC3=O)cnn2C2CCOCC2)c(F)n1 [Example 42]	half-life	421 min
O=C(N[C@H]1N=C(c2ccccc2)c2cccc(F)c2NC1=O)c1cnn(C2COC2)c1-c1ccc(NC2CC2)nc1F [Example 19]	half-life	> 186 min
CC(C)Nc1ccc(-c2c(C(=O)N[C@H]3N=C(c4ccccc4)c4cccc(F)c4NC3=O)cnn2C2CCOCC2)c(F)n1 [Example 22]	half-life	207 min
CCNc1ccc(-c2c(C(=O)N[C@H]3N=C(c4ccccc4)c4cccc(F)c4NC3=O)cnn2C2CCOCC2)c(F)n1 [Example 24]	half-life	162 min
O=C(N[C@H]1N=C(c2ccccc2)c2cccc(F)c2NC1=O)c1cnn(C2CCOCC2)c1-c1ccc(NC2CC2)nc1F [Example 21]	half-life	> 186 min
O=C(N[C@H]1N=C(c2ccccc2)c2cccc(F)c2NC1=O)c1cn(C2CCOCC2)nc1-c1ccc(NC2CC2)nc1F [Example 32]	half-life	> 186 min
CCn1ncc(C(=O)N[C@H]2N=C(c3ccccc3)c3ccccc3NC2=O)c1-c1ccc(NC2CC2)nc1F [Example 4]	half-life	53.5 min
CCn1cc(C(=O)N[C@H]2N=C(c3ccccc3)c3cccc(F)c3NC2=O)c(-c2ccc(NC3CC3)nc2F)n1 [Example 26]	half-life	> 186 min
O=C(N[C@H]1N=C(c2ccccc2)c2ccccc2NC1=O)c1cnn(C2CCOCC2)c1-c1ccc(NC2CC2)nc1F [Example 20]	half-life	190 min
CC(C)Nc1ccc(-c2c(C(=O)N[C@H]3N=C(c4ccccc4)c4ccccc4NC3=O)cnn2C2CCOCC2)c(F)n1 [Example 23]	half-life	> 186 min
CC(C)(C)n1cc(C(=O)N[C@H]2N=C(c3ccccc3)c3cccc(F)c3NC2=O)c(-c2ccc(NC3CC3)nc2F)n1 [Example 30]	half-life	71.3 min
CCn1ncc(C(=O)N[C@H]2N=C(c3ccccc3)c3cccc(F)c3NC2=O)c1-c1ccc(NC2CC2)nc1F [Example 11]	half-life	194 min
CCn1cc(C(=O)N[C@H]2N=C(c3ccccc3)c3ccccc3NC2=O)c(-c2ccc(NC3CC3)nc2F)n1 [Example 25]	half-life	506 min
